System Under Test: T1, VGLVKSK(biotin) peptide (XGLVKSK(biotin), X = Val)
T1 construct: also called Nt-Val peptide
T1 peptide: VGLVKSK(Biotin)
Test Summary: BLI, biotinylated peptide on streptavidin biosensor, 10 µmol/L protein
Protocol: High-throughput kinetic measurements were taken using Octet Red96e system with Octet Streptavidin (SA) Biosensors in 96-well format. […] The association of GID4 wild-type and variants were then measured by incubating the biosensors in wells with the proteins for 10 min and then dissociation measured by moving the sensors into new wells with dialysis buffer with 0.1% BSA for another 10 min. […] The measurements were analyzed with instrument software Data Analysis HT (Version 12). […]
No end group written: not given here. *: point of attachment. Biotin = O=C1N[C@H]2[C@H](CS[C@H]2CCCCC(=O)*)N1
Reported Property: binding result

Ask | // binding result lookup, key: GID4 S283F variant (residues 116-300), purified with N-terminal His-tag (designed binder, not shown: N-terminal six-histidine tag and TEV protease recognition site from the pET21(+) construct) GVATSLLYSGSKFRGHQKSKGNSYDVEVVLQHVDTGNSYLCGYLKIKGLTEEYPTLTTFFEGEIISKKHPFLTRKWDADEDVDRKHWGKFLAFYQYAKSFNSDDFDYEELKNGDYVFMRWKEQFLVPDHTIKDISGASFAGFYYICFQKSAASIEGYYYHRSSEWYQFLNLTHVPEHSAPIYEFR
Reply | binds

Ask | Subsequent entry: GID4 A252V-S253T double mutant variant (residues 116-300), purified with N-terminal His-tag (designed binder, also called A252V-S253T mutant; not shown: N-terminal six-histidine tag and TEV protease recognition site from the pET21(+) construct) GVATSLLYSGSKFRGHQKSKGNSYDVEVVLQHVDTGNSYLCGYLKIKGLTEEYPTLTTFFEGEIISKKHPFLTRKWDADEDVDRKHWGKFLAFYQYAKSFNSDDFDYEELKNGDYVFMRWKEQFLVPDHTIKDISGVTFAGFYYICFQKSAASIEGYYYHRSSEWYQSLNLTHVPEHSAPIYEFR
Reply | binds

Ask | Now this one: GID4 A252V variant (residues 116-300), purified with N-terminal His-tag (designed binder, not shown: N-terminal six-histidine tag and TEV protease recognition site from the pET21(+) construct) GVATSLLYSGSKFRGHQKSKGNSYDVEVVLQHVDTGNSYLCGYLKIKGLTEEYPTLTTFFEGEIISKKHPFLTRKWDADEDVDRKHWGKFLAFYQYAKSFNSDDFDYEELKNGDYVFMRWKEQFLVPDHTIKDISGVSFAGFYYICFQKSAASIEGYYYHRSSEWYQSLNLTHVPEHSAPIYEFR
Reply | binds

Data provenance: patent US20250026797A1
